Data provenance: patent US12162819B2

# test: Particle size and PDI of lipid nanoparticles by dynamic light scattering
# Format: physicochemical
# particulars: lipid nanoparticle with the cationic lipid, cholesterol, DSPC, DMG-PEG2000 (50/38.5/10/1.5 mol%), luciferase mRNA, N/P 6
Overview of reported Particle size dispersity (PDI) across a group of compounds:
The response must contain the number and no unit.

What Particle size dispersity (PDI) value was documented for this compound, CCCCCCCCCCOC(=O)C(C)(C)CCCCCC(CCCCCC(C)(C)C(=O)OCCCCCCCCCC)OC(=O)CCN(C)C ?
0.06

Same question for CCCCCCCCCSC(=O)C(C)(C)CCCCCC(CCCCCC(C)(C)C(=O)SCCCCCCCCC)OC(=O)CC1CCN(CCO)CC1 please.
0.01

Same question for CCCCCCCCCCSC(=O)C(C)(C)CCCCCC(CCCCCC(C)(C)C(=O)OCCCCCCCCC)OC(=O)CCCN(C)C (centres unmarked) please.
0.05

Same question for CCCCCCCCCSC(=O)C(C)(C)CCCCCC(CCCCCC(C)(C)C(=O)SCCCCCCCCC)OC(=O)CCCN(C)C please.
0.03

Same question for CCCCCCCCCCOC(=O)C(C)(C)CCCCCC(CCCCCC(C)(C)C(=O)OCCCCCCCCCC)OC(=O)CCN1CCOCC1 please.
0.05

Same question for CCCCCCCCOC(=O)C(C)(C)CCCCCC(CCCCCC(C)(C)C(=O)OCCCCCCCC)OC(=O)C1CCN(C(C)C)CC1 please.
0.06

Same question for CCCCCCCCCCOC(=O)C(C)(C)CCCCCC(CCCCCC(C)(C)C(=O)OCCCCCCCCCC)OC(=O)CN1CCOCC1 please.
0.05

Same question for CCCCCCCCCCNC(=O)C(C)(C)CCCCCC(CCCCCC(C)(C)C(=O)NCCCCCCCCCC)OC(=O)CCN(C)C please.
0.07

###

Overview of reported Particle size dispersity (PDI) across a group of molecules:
# test: Particle size and PDI of lipid nanoparticles by dynamic light scattering
# Assay type: physicochemical
# particulars: lipid nanoparticle with the cationic lipid, cholesterol, DSPC, DMG-PEG2000 (50/38.5/10/1.5 mol%), luciferase mRNA, N/P 6
The response must contain the number and no unit.

* CCCCCCCCCCOC(=O)C(C)(C)CCCCC(CCCCC(C)(C)C(=O)OCC(CCCCC)CCCCCCC)OC(=O)CCCN(C)C (stereo not shown) [Compound 123] | 0.05
* CCCCCCCCCCSC(=O)C(C)(C)CCCCCC(CCCCCC(C)(C)C(=O)SCCCCCCCCCC)OC(=O)CCN(C)C [Compound 33] | 0.04
* CCCCCCC#CCCOC(=O)C(C)(C)CCCCCC(CCCCCC(C)(C)C(=O)OCCC#CCCCCCC)OC(=O)CCCN(C)C [Compound 24] | 0.04
* CCCCCCCCCOC(=O)C(C)(C)CCCCCC(CCCCCC(C)(C)C(=O)OCCCCCCCCC)OC(=O)CCCCCN(C)C [Compound 32] | 0.07
* CCCCCC/C=C\CCOC(=O)C(C)(C)CCCCCC(CCCCCC(C)(C)C(=O)OCC/C=C\CCCCCC)OC(=O)CCCN(C)C [Compound 27] | 0.05

What Particle size dispersity (PDI) value was documented for this molecule, CCCCCCCC#CCOC(=O)C(C)(C)CCCCCC(CCCCCC(C)(C)C(=O)OCC(CCCCC)CCCCCCC)OC(=O)CCCN(C)C (stereo not shown) [Compound 116] ?
0.05

Same question for CCCCCCCC#CCOC(=O)C(C)(C)CCCCCC(CCCCCC(C)(C)C(=O)OCCCC(CCCCC)CCCCC)OC(=O)CCCN(C)C (stereo not shown) [Compound 115] please.
0.04

###

# test: Encapsulation efficiency of lipid nanoparticles, Quant-It RiboGreen RNA Assay
# Type: physicochemical
# particulars: lipid nanoparticle with the cationic lipid, luciferase mRNA
Hi, to clarify the labels: t covers Encapsulation efficiency (%) from 90% upward, f covers anything below 90%.

// below: answered compounds
• CCCCCCCCCSC(=O)C(C)(C)CCCCCC(CCCCCC(C)(C)C(=O)OCC(CCCCC)CCCCCCC)OC(=O)CC1CCN(C)CC1 (stereo not shown) = t
• CCCCCCCCCCNC(=O)C(C)(C)CCCCCC(CCCCCC(C)(C)C(=O)NCCCCCCCCCC)OC(=O)CN(C)C = f
• CCCCCCCCCCOC(=O)C(C)(C)CCCCCC(CCCCCC(C)(C)C(=O)OCCCCCCCCCC)OC(=O)CCN1CCOCC1 = f
• CCCCCCC/C=C\COC(=O)CC(C)(C)CCCCC(CCCCC(C)(C)CC(=O)OCC(CCCCC)CCCCCCC)OC(=O)CCCN(C)C (stereo not shown) = t
• CCCCCCCCCOC(=O)C(C)(C)CCCCCC(CCCCCC(C)(C)C(=O)OCCCCCCCCC)OC(=O)CC1CCN(CCO)CC1 = t

As a next step, examine the compound that follows.
Does the reported Encapsulation efficiency (%) for CCCCCCCCCCOC(=O)C(C)(C)CCCCCC(CCCCCC(C)(C)C(=O)OCCCCCCCCCC)OC(=O)CN(C)C fall at or above the 90% mark?
f

###

# Test system: C57BL/6 mice
# test: In vivo bioluminescence assay of lipid nanoparticles encapsulated with luciferase mRNA in mice
# particulars: C57BL/6 mice, intravenous, single dose 0.5 mg/kg luciferase mRNA in LNP, 6 h after administration, group mean
measured_attribute: Total photon count in vivo at 6 hours after administration (Total Flux)
The response must contain the number and no unit.

• CCCCCCCCCCNC(=O)C(C)(C)CCCCCC(CCCCCC(C)(C)C(=O)NCCCCCCCCCC)OC(=O)CCCN(C)C = 6.34E+07
• CC(C)CCCCCCCOC(=O)CCC(C)(C)CCCC(CCCC(C)(C)CCC(=O)OCCCCCCCC(C)C)OC(=O)CCCN(C)C = 3.59E+10
• CCCCCCCCC(CCCCCC)OC(=O)C(C)(C)CCCCCC(CCCCCC(C)(C)C(=O)OC(CCCCCC)CCCCCCCC)OC(=O)CCN(C)C (stereo not drawn) = 3.97E+07
• CCCCCCCCCCOC(=O)C(C)(C)CCCCCC(CCCCCC(C)(C)C(=O)OCCCCCCCCCC)OC(=O)C1CCN(C)CC1 = 5.30E+09
• CCCCCCCCCOC(=O)C(C)(C)CCCCCC(CCCCCC(C)(C)C(=O)OCCCCCCCCC)OC(=O)CC1CCN(CCO)CC1 = 3.59E+08

Lab note: next compound to report on.
What Total photon count in vivo at 6 hours after administration (Total Flux) value was documented for this compound, CCCCCCCCCOC(=O)C(C)(C)CCCCCC(CCCCCC(C)(C)C(=O)OCC(CCCCC)CCCCCCC)OC(=O)CC1CCN(CCO)CC1 (stereo not drawn) ?
1.06E+08

###

# test: Particle size and PDI of lipid nanoparticles by dynamic light scattering
# Assay type: physicochemical
# particulars: lipid nanoparticle with the cationic lipid, cholesterol, DSPC, DMG-PEG2000 (50/38.5/10/1.5 mol%), luciferase mRNA, N/P 6
Hi, to clarify the labels: Met covers Particle size dispersity (PDI) from 0.06 upward, Not met covers anything below 0.06.

// below: answered compounds
- CCCCCCCCCOC(=O)C(C)(C)CCCCCC(CCCCCC(C)(C)C(=O)OCC#CC(CCCCCC)CCCCCC)OC(=O)CCCN(C)C (stereo not shown): Met
- CC/C=C\CCCCCOC(=O)C(C)(C)CCCCCC(CCCCCC(C)(C)C(=O)OCCCCC/C=C\CC)OC(=O)CCN(C)C: Not met
- CCCCCCC#CCOC(=O)C(C)(C)CCCCCC(CCCCCC(C)(C)C(=O)OCCCCCCCCC)OC(=O)CCCN(C)C (stereo not shown): Met
- CCCCCCCCC(CCCCCCCC)NC(=O)C(C)(C)CCCCCC(CCCCCC(C)(C)C(=O)NC(CCCCCCCC)CCCCCCCC)OC(=O)CCN(C)C: Not met
- CCCCCCCCCCSC(=O)C(C)(C)CCCCCC(CCCCCC(C)(C)C(=O)SCCCCCCCCCC)OC(=O)CCCN(C)C: Not met
- CCCCCCCCCOC(=O)C(C)(C)CCCCCC(CCCCCC(C)(C)C(=O)OCCCCCCCCC)OC(=O)C1CCN(C)CC1: Not met
- CCCCCCC(CCCCCC)CCOC(=O)CCC(C)(C)CCCC(CCCC(C)(C)CCC(=O)OCCC(CCCCCC)CCCCCC)OC(=O)CCCN(C)C: Not met
- CCCCCCCCCCOC(=O)C(C)(C)CCCCCC(CCCCCC(C)(C)C(=O)OCCCCCCCCCC)OC(=O)C1CCN(C)CC1: Not met
- CCCCCCCCCOC(=O)C(C)(C)CCCCCC(CCCCCC(C)(C)C(=O)OCC(CCCCC)CCCCCCC)OC(=O)CCCN(C)C (stereo not shown): Met

As a next step, examine the compound that follows.
Does the reported Particle size dispersity (PDI) for CCCCCCCCCCSC(=O)C(C)(C)CCCCCC(CCCCCC(C)(C)C(=O)SCCCCCCCCCC)OC(=O)CCCCCN(C)C fall at or above the 0.06 mark?
Met
